# Tested on: rice
# ASSAY_PROTOCOL: Water application, phytotoxicity on rice (Table 2)
# Type: in vivo
# Parameters: key: 0: no effect; 1: very slightly affected; 2: slightly affected; 3: moderately affected; 4: considerably affected; 5: completely killed
# CONDITION: 40 g/a, 25 days, score 0-5
READOUT_LABEL: Phytotoxicity on rice
Answers are plain numbers.

Take a look at these entries with their results.
# Phytotoxicity on rice (compound: CCCCSP(=O)(OCCC)SCC(=O)N1CCCCC1C (stereo not drawn) ) is 0

# Phytotoxicity on rice (compound: CCCCOP(=O)(SCC)SCC(=O)N1CCCCC1C (stereo not drawn) ) is 0

# Phytotoxicity on rice (compound: CCOP(=O)(SCC(=O)N1CCCCC1C)SCc1ccccc1 (stereo not drawn) ) is 0

# Phytotoxicity on rice (compound: CCCCCSP(=O)(OCCC)SCC(=O)N1CCCCC1CC (stereo not drawn) ) is 0

# Phytotoxicity on rice (compound: O=[N+]([O-])c1ccc(Oc2ccc(Cl)cc2Cl)cc1 [NIP, reference compound] ) is 4

# Phytotoxicity on rice (compound: C=CCSP(=O)(OCCC)SCC(=O)N1CCCCC1C (stereo not drawn) ) is 2

Your task in this section: give Phytotoxicity on rice for each listed record.
1. CCCCOP(=O)(SCC(=O)N1CCCCC1CC)SC(C)C (stereo not drawn)
2. CCOP(=O)(SC)SCC(=O)N1CCCCC1CC (stereo not drawn)
3. CCCOP(=O)(SCCC)SCC(=O)N1CCCCC1C (stereo not drawn)
4. CCCOP(=O)(SCC(=O)N1CCCCC1CC)SC(C)CC (stereo not drawn)
5. CCCOP(=O)(SCCc1ccccc1)SCC(=O)N1CCCCC1CC (stereo not drawn)

[0, 0, 0, 0, 0]

Your task in this section: give Phytotoxicity on rice for each listed record.
1. CCOP(=O)(SCC(=O)N1CCCCC1C)SC(C)c1ccccc1 (stereo not drawn)
2. CCCCCSP(=O)(OCCC)SCC(=O)N1CCCCC1C (stereo not drawn)
3. CCCCSP(=O)(OCC)SCC(=O)N1CCC(C)CC1 (stereo not drawn)
4. CCCSP(=O)(OCC)SCC(=O)N1CCCCC1CC (stereo not drawn)
5. CCOP(=O)(SCC(=O)N1CCC(C)CC1)SC(C)C (stereo not drawn)
6. CCOP(=O)(SCC(=O)N1CCCCC1CC)SCc1ccc(CC)cc1 (stereo not drawn)
7. C=CCSP(=O)(OCCC)SCC(=O)N1CCCCC1CC (stereo not drawn)

1. 0
2. 0
3. 0
4. 0
5. 0
6. 0
7. 0

Your task in this section: give Phytotoxicity on rice for each listed record.
1. CCCSP(=O)(OCC)SCC(=O)N1CCCCC1C (stereo not drawn)
2. CCOP(=O)(SCC(=O)N1CCCCC1CC)SCC(C)C (stereo not drawn)
3. C=C(C)CSP(=O)(OCC)SCC(=O)N1CCCCC1CC (stereo not drawn)

1: 1; 2: 1; 3: 1
